# SYSTEM TESTED: T1, HA-tagged human Neuropeptide S receptor, N107 variant (human, UniProt Q6W5P4 1-371)
# T1 sequence (looked up): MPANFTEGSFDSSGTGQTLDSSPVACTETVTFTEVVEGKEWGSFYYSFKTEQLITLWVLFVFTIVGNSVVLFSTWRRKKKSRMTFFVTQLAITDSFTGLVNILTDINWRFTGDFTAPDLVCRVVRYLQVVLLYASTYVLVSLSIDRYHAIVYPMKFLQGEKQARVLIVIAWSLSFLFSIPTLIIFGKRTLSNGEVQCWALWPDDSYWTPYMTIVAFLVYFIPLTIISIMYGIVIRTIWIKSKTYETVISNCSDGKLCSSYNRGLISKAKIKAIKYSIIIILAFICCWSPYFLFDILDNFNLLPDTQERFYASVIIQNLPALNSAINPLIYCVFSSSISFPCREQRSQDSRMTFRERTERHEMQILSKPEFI
# ASSAY NOTES: radioligand binding
MEASURE: pIC50
In simple prose, pIC50 is minus the logarithm base ten of a concentration in moles per litre.

Could you tell me which pIC50 is on file for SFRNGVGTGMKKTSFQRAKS (peptide, UniProt P0C0P6 70-89, looked up) [Neuropeptide S (human)] ?
8.06

Ref: paper PMC2814945
